Tested on: Escherichia coli
Assay: Antibacterial activity against Escherichia coli ATCC 26032 after 24 hrs by two fold serial dilution method
Assay type: functional
Details: ATCC 26032, 24 h
# MIC per entry
Write your answer as a measured quantity: the number, then the unit.

molecule	MIC
C=CCN1[C@@H](c2ccccc2)C(C)(C)C(=O)C[C@H]1c1ccccc1 (relative stereo)	25 µg/mL
C=CCN1[C@H](c2ccc(C)cc2)C/C(=N\O)[C@@H](C)[C@@H]1c1ccc(C)cc1 (relative stereo)	50 µg/mL
C=CCN1[C@H](c2ccccc2)C/C(=N\O)[C@@H](CC)[C@@H]1c1ccccc1 (relative stereo)	100 µg/mL
C=CCN1[C@H](c2ccc(C)cc2)CC(=O)[C@@H](C)[C@@H]1c1ccc(C)cc1 (relative stereo)	25 µg/mL
C=CCN1[C@@H](c2ccccc2)C(C)(C)/C(=N/O)C[C@H]1c1ccccc1 (relative stereo)	100 µg/mL

In the following, a different molecule is considered.
Reported MIC for Escherichia coli, given C=CCN1[C@H](c2ccc(Cl)cc2)CC(=O)[C@@H](C)[C@@H]1c1ccc(Cl)cc1 (relative stereo) ?
12.5 µg/mL

src = ChEMBL document CHEMBL2157909
